Tested on: Raji
Assay: ATP luminescence proliferation assay, Raji
Type: cell-based, human
Conditions: ATP luminescence, 72 h incubation, read-out: EC50 Raji (72 h)
pEC50: −log10 of the molar value.
Item-by-item account of pEC50
value-kind: pEC50

molecule	test-result
CC[C@H](C)[C@H](NC(=O)[C@H]1CCCCN1C)C(=O)N(C)[C@H](C[C@@H](OC)c1nc(C(=O)N[C@@H](Cc2ccccc2)C(=O)OC)cs1)C(C)C	8.52
CC[C@H](C)[C@H](NC(=O)[C@H]1CCCCN1C)C(=O)N(COC(=O)CC(C)C)[C@H](C[C@@H](OC(C)=O)c1nc(C(=O)N[C@@H](Cc2ccccc2)C[C@H](C)C(=O)O)cs1)C(C)C [Tub D, tubulysin D, reference compound]	11.32
CC[C@H](C)[C@H](NC(=O)[C@H]1CCCCN1C)C(=O)N(C)[C@H](C[C@@H](OC(C)=O)c1nc(C(=O)N[C@@H](Cc2ccc(N)cc2)C(=O)O)cs1)C(C)C	7.62

###

Tested on: NCI-H740
Experiment: ATP luminescence proliferation assay, NCI-H740
Assay type: cell-based, human
Conditions: Homo sapiens, H740, 72 h incubation
pEC50: −log10 of the molar value.
value-kind: pEC50

>>> df
                                   molecule  test_result
0  Nc1ccc(C(=O)Nc2ccc3[nH]c(C(=O)N4C[C@@H](CCl)c5c4cc(O)c4ccccc54)cc3c2)cc1 [CBI, reference compound]         8.66

###

Item-by-item account of pEC50
Tested on: Nomo-1
Test: ATP luminescence proliferation assay, Nomo-1
Type: cell-based, human
Conditions: Homo sapiens, NOMO-1, 72 h, read-out: EC50 Nomo-1 (72 h), ATP luminescence, Nomo-1, 72 h incubation
pEC50: −log10 of the molar value.

molecule	pEC50
CC[C@H](C)[C@H](NC(=O)[C@H]1CCCCN1C)C(=O)N(C)[C@H](C[C@@H](OC)c1nc(C(=O)NC(Cc2ccccc2)C[C@H](C)C(=O)O)cs1)C(C)C (stereo partly drawn) [Compound 15]	8.57
CCCC(NC(=O)c1csc([C@@H](C[C@H](C(C)C)N(C)C(=O)[C@@H](NC(=O)[C@H]2CCCCN2C)[C@@H](C)CC)OC)n1)C(=O)OC (stereo partly drawn) [Compound 17]	8.41
CC[C@H](C)[C@H](NC(=O)[C@H]1CCCCN1C)C(=O)N(C)[C@H](C[C@@H](OC)c1nc(C(=O)N[C@@H](Cc2ccccc2)C(=O)N[C@@H](C)C(=O)OC)cs1)C(C)C [Compound 24]	8.40

###

Item-by-item account of EC50
Tested on: ZR-75
Experiment: ATP luminescence proliferation assay, ZR-75
Assay type: cell-based, human
Conditions: Homo sapiens, ZR75; ATP luminescence, ZR-75, 72 h incubation; read-out: EC50 ZR-75 (72 h)
value-kind: EC50 (nM)

compound	value-kind	test-result
Nc1ccc(C(=O)Nc2ccc3[nH]c(C(=O)N4C[C@@H](CCl)c5c4cc(O)c4ccccc54)cc3c2)cc1 [CBI, reference compound]	EC50	2.2
COc1cccc2c1C(=O)c1c(O)c3c(c(O)c1C2=O)C[C@@](O)(C(=O)CO)C[C@@H]3O[C@H]1C[C@H](N)[C@H](O)[C@H](C)O1 [Dox, doxorubicin, reference compound]	EC50	236
